FYI, the data here is from the nanobody polyreactivity screen of Harvey et al. (2022).

Assay: yeast display, Sf9 membrane polyspecificity reagent, FACS + sequencing; frameworks hold sequencing errors
OBSERVABLE: polyreactivity (PSR sort gate)

Some solved entries appear below for comparison.
QVQLVDSAGGLVQAGGTLRLSCADSGFTCSYYAMGWYRQAPGTERELVAAITSGGSTDYADSVKGRFTISRDNEKNTFYLQMHSLKPVDTAVFYCKITPYYAVFYYWGPGTQVTVSS: high polyreactivity
QVQLVESGGGLVQAGGSLRLSCAASGSTFFVNTMGWYRQAPGKERELVAAIRRRGGSTYYADSVKGRFTISRDNAKNTVYLQMNSLIPEDTAVYYCAADSYSRYYYWGQGTQVTVSS: high polyreactivity
QVQLVESGGGLVQAGGSLRLSCAASGRIFSSNAMGWYRQAPGKERELVASINRGDRTYYADSVKGRFTISRDNAKNTVYLQMNSLKPEDTAVYYCAAARTYGKKYGYWGQGTQVTVSS: high polyreactivity
QVQLVESAGGLVQAGGSLRLSCAASGFIFRNYAMGWYRQEHGKERELVAAISRRGGSTYYADSVKGRFTISRDNAKNTVYLQMNSLKPEDTAVYYCAADYYYSSRIEYYYWGQGTQVTVSS: high polyreactivity
QVQLQESGGGLVQAGGSLRLSCAASGSIYDDTYMGWSRQAPGKERELVATIDSGSTTNYADSVKGRITISRDNAKNTVYLQMNSLKPEDTAVYYCAAADSHIDYFDYWGQGTQVTVSS: low polyreactivity
QDQHVESGGGLVQAGGSLRLSCAASGSTFAFYAMGWYRQAPGKERELVAAINYGGTSTYYADSVKGRFTISRDNAKNTVYLQMNSLKPEDTAVYYCAARRPTSPRRYESWGQGTQVTVSS: high polyreactivity

Query polyreactivity (PSR sort gate) for QVQLVESGGGLVHAGGSLRLSCAASGFTIERYAMGWYRQAAGKERELVAVISTSGGSTYYADSVNWRYTITRDNAKNSVYLQMNSLKPEDTAVYYCAKDGSSRGDYHFGWGYYYWGQGTQVTVSS
low polyreactivity

Query polyreactivity (PSR sort gate) for QVQLVESGGGLVQAGGSLRLSCAASGRTFWSYAMGWYRQAPGKEREFVAAISRRGGITYYADSVKGRFTISRDNAKNTVYLQMNSLKPEDTAVYYCAKGAQSYYGGQVKYDYWGQGTQVTVSS
high polyreactivity

Query polyreactivity (PSR sort gate) for QLQPVESGGGLVQAGGSLRLSSAASGSTFVSYDRGWYRQAPGKERALVAVITSGGSTNYADSVKGRFTISRDNAKNTVYLQMNSLKPEETAVYYCAKRRYGRSGGSRYHYWGQGTQVTVSS
high polyreactivity

Query polyreactivity (PSR sort gate) for QVQLVESGGGLVQAGGSLRLSCAASGSSFDWYVMGWYRQAPGKERELVAVISRSGGSTYYADSVKGRFTISRDNAKITVYLQMNSLTPEDTAVYSCGADSRSYYRDVDYWGQGTQVTVSS
low polyreactivity

Query polyreactivity (PSR sort gate) for QVQLVESGGGLVQAGGSLRLSCAASGSIFPANAMGWYRQAPGKERELVAGISERGSSTYYAVSVKGRFTISRDNAKNTVYLQMNSLKPEDTAVYYCAADLVGRYWSSTHNWARGDYWGQVTQVTVSS
low polyreactivity
